ASSAY SUMMARY: Agonist activity at STING in STING knockout human THP-1 cells harboring IRF-inducible luciferase reporter construct assessed as increase in relative […] unit incubated for 12 hrs by Quanti-luc reagent based assay
RECORDED ENDPOINT: EC50

Sure, the documented EC50 for "CC[C@H](CC(=O)c1cc2cc(OC)c(OC)cc2[se]1)C(=O)O" is > 100 µM
